Data origin, for the record: patent US20100069316A1

Test system: XG7 myeloma cell line
assay_procedure: Cell proliferation assay (tritiated thymidine incorporation), XG7
Type: cell-based, human
measurement_conditions: Homo sapiens
measured_quantity: pIC50
Please treat pIC50 as minus the base-10 logarithm of the molar concentration.

Task: Please list pIC50 recorded for the molecule N[C@@H](Cc1ccc(N(CCCl)CCCl)cc1)C(=O)O [Melphalan, melphalan]
Result: 5.93

---

Tested on: XG7 myeloma cell line
assay_procedure: Cell proliferation assay (tritiated thymidine incorporation), XG7
Format: cell-based, human
measurement_conditions: Homo sapiens; XG7, proliferation; read-out: IC50
measured_quantity: IC50 (nM)
The reply should contain only the number, in nM.

Task: Quote IC50 reported for CC(C)C[C@H](NC(=O)[C@H](Cc1ccccc1)NC(=O)c1cnccn1)B(O)O [Velcade, bortezomib] please.
Result: 3.5

---

Test system: XG12 myeloma cell line
assay_procedure: Cell proliferation assay (tritiated thymidine incorporation), XG12
Type: cell-based, human
measurement_conditions: Homo sapiens; XG12; concentration of compound A yielding 50% inhibition of proliferation, alone or with fixed Velcade/Melphalan; read-out: IC50
measured_quantity: pIC50
Answer as the number alone; pIC50 is minus log10 of concentration in mol/L.

Task: Return pIC50 for the following compound: `CC(=O)N1CCN(C(=O)c2ccc(Nc3nccc(-c4ccc(Cl)cc4)n3)cc2)CC1`
Result: 6.01

---

Test system: XG12 myeloma cell line
assay_procedure: Cell proliferation assay (tritiated thymidine incorporation), XG12
Assay type: cell-based, human
measurement_conditions: Homo sapiens
measured_quantity: IC50

Task: Please look at this compound and report its IC50: `N[C@@H](Cc1ccc(N(CCCl)CCCl)cc1)C(=O)O`
Result: 1230 nM

---

Test system: 10 myeloma cell lines
assay_procedure: Cell proliferation assay, mean over 10 myeloma cell lines
Type: cell-based, human
measurement_conditions: Homo sapiens; mean determined on 10 myeloma cell lines; read-out: mean concentration yielding 50% inhibition
measured_quantity: pIC50
Convention used: pIC50 is expressed as -log10 of the molar concentration.

Task: Please report pIC50 with 10 myeloma cell lines for item CC(=O)N1CCN(C(=O)c2ccc(Nc3nccc(-c4ccc(Cl)cc4)n3)cc2)CC1 [Compound A] .
Result: 5.48
